target-under-test: Nuclear receptor subfamily 1 group I member 2 (Homo sapiens) (UniProt O75469)
Sequence (O75469 whole entry, looked up): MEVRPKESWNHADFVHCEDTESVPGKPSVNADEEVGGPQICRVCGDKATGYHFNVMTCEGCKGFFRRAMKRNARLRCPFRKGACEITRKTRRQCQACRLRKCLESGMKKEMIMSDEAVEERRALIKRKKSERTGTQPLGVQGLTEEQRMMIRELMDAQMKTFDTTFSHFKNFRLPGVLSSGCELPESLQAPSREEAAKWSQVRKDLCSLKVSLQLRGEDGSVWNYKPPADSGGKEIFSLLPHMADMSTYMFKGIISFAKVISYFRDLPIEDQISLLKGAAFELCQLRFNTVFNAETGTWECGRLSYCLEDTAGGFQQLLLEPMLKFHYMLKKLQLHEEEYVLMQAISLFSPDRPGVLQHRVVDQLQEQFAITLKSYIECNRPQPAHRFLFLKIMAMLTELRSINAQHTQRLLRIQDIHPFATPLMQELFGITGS
experiment-description: Human pregnane X receptor (PXR) small molecule agonists, qHTS assay (AID 1346982); note: nearly all actives have a fitted effect of over 35% in size
experimental-conditions: PXR-Luc HepG2, CYP3A4 luciferase reporter, 24 h; series mostly up to 92.4 µM
Description: National Center for Advancing Translational Sciences [NCATS] NIH Chemical Genomics Center [NCGC] U.S. Environmental Protection Agency [EPA] National Institutes of Environmental Health Sciences [NIEHS] National Toxicology Program [NTP] The human pregnane X receptor (hPXR) regulates the expression of several drug metabolizing enzymes and induction of these proteins is a major mechanism for developing drug resistance in cancer. […]
Inconclusive results are not listed. Active and inactive are the calls of the source. Calls come from the whole dose curve; as a rule, active = well fitted activation curve with a large enough effect in the repeat runs; inconclusive = weak or mixed curves; inactive = no such curve, though single readings can be large or run the other way.
measure-name: outcome

Cc1cc(N)no1    inactive
Clc1cc(Cl)c(Cl)c(Cl)c1Cl    inactive
N#Cc1cc(NC(=O)C(=O)O)c(Cl)c(NC(=O)C(=O)O)c1    inactive
